Test system: TK-10 renal
experimental protocol: NCI-60 one-dose screen, 48 h (100 = growth as untreated, 0 = no growth, -100 = all killed)
experimental setup: 10 µM unless noted
About 83,000 compounds went through this panel and 20% of them were active in at least one assay; those are over-represented in the sample as a whole.
Decide by growth: equal to or exceeding 70% means satisfied, less means not satisfied.

In plain terms: is recorded growth at least 70% for COc1cc(C2CC(c3ccc(N(C)C)cc3)=NN2C(C)=O)cc(OC)c1OC (stereo not given) ?
not satisfied

# repeat for N#CC1=C(N)Oc2c(sc3c(Br)cccc23)C1c1ccc(Br)cc1 (stereo not given)
not satisfied

# repeat for Cc1cc(Cl)ccc1NS(=O)(=O)c1ccc(-c2cnc(C3CC3)o2)cc1
not satisfied

# repeat for NS(=O)(=O)c1ccc(-n2nc(-c3ccc(Cl)cc3)c3ccccc3c2=O)cc1
satisfied

# repeat for O=c1c2cc(F)ccc2sc2c(NCCN3CCOCC3)nc3ccccc3c12
satisfied
